measurementTarget: MRP6 (ABCC6) (Homo sapiens)
Sequence (O95255 whole entry): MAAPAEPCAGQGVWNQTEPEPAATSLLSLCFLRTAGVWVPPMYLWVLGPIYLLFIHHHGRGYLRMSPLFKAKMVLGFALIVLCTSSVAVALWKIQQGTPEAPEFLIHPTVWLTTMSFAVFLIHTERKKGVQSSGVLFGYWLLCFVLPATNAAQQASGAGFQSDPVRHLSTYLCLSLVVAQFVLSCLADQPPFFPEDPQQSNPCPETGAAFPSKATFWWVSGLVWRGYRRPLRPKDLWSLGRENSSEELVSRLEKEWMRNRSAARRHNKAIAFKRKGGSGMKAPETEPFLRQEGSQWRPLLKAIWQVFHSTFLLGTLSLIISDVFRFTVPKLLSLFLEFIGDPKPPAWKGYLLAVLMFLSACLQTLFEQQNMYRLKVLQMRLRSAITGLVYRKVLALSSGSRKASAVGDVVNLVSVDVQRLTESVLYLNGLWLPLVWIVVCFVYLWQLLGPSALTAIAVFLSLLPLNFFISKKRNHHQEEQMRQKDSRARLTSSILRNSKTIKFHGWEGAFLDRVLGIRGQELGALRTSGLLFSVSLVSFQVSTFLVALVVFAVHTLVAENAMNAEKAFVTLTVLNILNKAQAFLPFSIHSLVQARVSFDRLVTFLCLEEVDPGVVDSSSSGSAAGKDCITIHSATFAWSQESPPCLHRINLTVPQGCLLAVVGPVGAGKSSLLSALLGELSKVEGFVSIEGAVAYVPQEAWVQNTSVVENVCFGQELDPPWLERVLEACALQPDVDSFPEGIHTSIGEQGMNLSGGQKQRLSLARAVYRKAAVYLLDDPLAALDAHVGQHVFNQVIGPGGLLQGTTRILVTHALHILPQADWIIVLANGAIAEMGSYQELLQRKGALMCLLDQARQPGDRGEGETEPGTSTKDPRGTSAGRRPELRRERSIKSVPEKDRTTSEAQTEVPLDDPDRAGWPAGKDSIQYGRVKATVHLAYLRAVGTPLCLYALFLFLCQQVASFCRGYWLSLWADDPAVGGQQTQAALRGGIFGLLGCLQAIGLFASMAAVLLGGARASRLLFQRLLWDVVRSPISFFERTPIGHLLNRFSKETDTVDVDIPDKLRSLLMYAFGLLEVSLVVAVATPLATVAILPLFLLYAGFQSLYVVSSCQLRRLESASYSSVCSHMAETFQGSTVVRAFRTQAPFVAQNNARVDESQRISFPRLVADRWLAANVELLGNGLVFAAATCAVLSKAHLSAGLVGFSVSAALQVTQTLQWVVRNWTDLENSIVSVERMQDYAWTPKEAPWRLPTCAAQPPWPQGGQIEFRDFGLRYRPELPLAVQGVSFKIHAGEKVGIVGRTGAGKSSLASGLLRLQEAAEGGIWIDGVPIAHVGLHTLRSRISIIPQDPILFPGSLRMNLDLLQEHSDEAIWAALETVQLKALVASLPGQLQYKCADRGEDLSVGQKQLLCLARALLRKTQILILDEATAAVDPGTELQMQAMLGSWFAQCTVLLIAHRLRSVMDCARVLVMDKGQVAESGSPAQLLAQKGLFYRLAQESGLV
assay: TP_TRANSPORTER: inhibition of NEM-GS by Indomethacin at a concentration of 100uM in membrane vesicles from MRP6-expressing Sf9 cells
Format: functional, cell membranes, Membrane vesicle
Set-up: scale not given: the % may be the effect or the level left
measurementConditions: probe NEM-GS, read-out: Activity

- molecule: "COc1ccc2c(c1)c(CC(=O)O)c(C)n2C(=O)c1ccc(Cl)cc1 [INDOMETHACIN]"
  activity at 100 µM (%): 20

----------
measurementTarget: UniProtKB O95255
assay: TP_TRANSPORTER: inhibition of NEM-GS in the presence of Probenecid at a concentration of 1mM in membrane vesicles from MRP6-expressing Sf9 cells
Assay type: functional, cell membranes, Membrane vesicle
Parameters: scale not given: the % may be the effect or the level left
measurementConditions: probe NEM-GS, read-out: Activity

- substanceSmiles: "CCCN(CCC)S(=O)(=O)c1ccc(C(=O)O)cc1"
  activity at 1000 µM [%]: 10
